Origin of measurements: patent US20160367961A1

target: streptavidin (Streptomyces avidinii); test: biochemical
Sequence (P22629 25-183, species assumed): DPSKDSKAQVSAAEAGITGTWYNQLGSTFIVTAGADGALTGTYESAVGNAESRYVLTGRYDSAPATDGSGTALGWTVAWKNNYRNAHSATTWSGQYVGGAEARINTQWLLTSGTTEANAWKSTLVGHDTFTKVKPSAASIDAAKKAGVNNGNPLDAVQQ
pKd: −log10 of the molar value.

[
  {
    "Substance": "H-LYDHPQNGGQ-OH [linear NH2-LYDHPQNGGQ-COOH, NH2-LYDHPQNGGQ-COOH]",
    "pKd": 4.00
  },
  {
    "Substance": "H-QNDHPQNGGQ-OH [linear NH2-QNDHPQNGGQ-COOH, NH2-QNDHPQNGGQ-COOH]",
    "pKd": 3.49
  }
]

---

Quick note: these are Kd numbers for system: UniProtKB P22629
Square brackets hold non-standard residues; d marks the D form. Peptide text beside a SMILES is read from it.

[
  {
    "Molecule": "CC(C)C[C@@H]1NC(=O)[C@H](CCC(N)=O)NC(=O)CNC(=O)CNC(=O)[C@H](CC(N)=O)NC(=O)[C@H](CCC(N)=O)NC(=O)[C@@H]2CCCN2C(=O)[C@H](Cc2c[nH]cn2)NC(=O)[C@H](CC(=O)O)NC(=O)[C@H](Cc2ccc(O)cc2)NC1=O [cyclic LYDHPQNGGQ, LYDHPQNGGQ] (cyclo(DHPQNGGQLY))",
    "Kd": "9.4 µM"
  },
  {
    "Molecule": "NC(=O)CC[C@H](NC(=O)[C@H](Cc1c[nH]c2ccccc12)NC(=O)[C@H]1CCCN1C(=O)[C@H](CCC(N)=O)NC(=O)[C@@H](N)CC(N)=O)C(=O)O [linear NH2-NQpWQ-COOH, NH2-NQpWQ-COOH] (H-NQ[dP]WQ-OH)",
    "Kd": "> 2000 µM"
  },
  {
    "Molecule": "NC(=O)CC[C@@H]1NC(=O)[C@H](Cc2c[nH]c3ccccc23)NC(=O)[C@H]2CCCN2C(=O)[C@H](CCC(N)=O)NC(=O)[C@H](CC(N)=O)NC1=O [cyclic NQpWQ, NQpWQ] (cyclo(NQ[dP]WQ))",
    "Kd": "61.3 µM"
  },
  {
    "Molecule": "NC(=O)CC[C@@H]1NC(=O)CNC(=O)CNC(=O)[C@H](CC(N)=O)NC(=O)[C@H](CCC(N)=O)NC(=O)[C@@H]2CCCN2C(=O)[C@H](Cc2c[nH]cn2)NC(=O)[C@H](CC(=O)O)NC(=O)[C@H](CC(N)=O)NC(=O)[C@H](CCC(N)=O)NC1=O [cyclic QNDHPQNGGQ, QNDHPQNGGQ] (cyclo(DHPQNGGQQN))",
    "Kd": "10.8 µM"
  }
]
